# test-summary: Pharmacokinetics study in rats in vivo, intravenous administration
# Design: species or system SD male rats
# protocol-conditions: Sprague-Dawley (SD), rat, plasma; SD male rats, intravenous injection at 300 mg/kg, dissolved in saline; read-out: Cl Clearance rate
measured-quantity: clearance (mL/min/kg)
Answers are plain numbers, in mL/min/kg.

compound NC[C@@H]1CN(C[C@@H]2[C@H](NC(=O)/C(=N\OC3(C(=O)O)CC3)c3csc(N)n3)C(=O)N2S(=O)O)S(=O)(=O)N1 (stereo in doubt) , clearance observed: 18.4

---

# test-summary: Pharmacokinetics study in rats in vivo, intravenous administration
# Set-up: species or system SD male rats
# protocol-conditions: Sprague-Dawley (SD), rat, plasma; SD male rats, intravenous injection at 100 mg/kg, dissolved in saline; read-out: T1/2 Half-life period (converted)
measured-quantity: half-life (min)
Numbers only, in min.

molecule NC[C@@H]1CN(C[C@@H]2[C@H](NC(=O)/C(=N\OC3(C(=O)O)CC3)c3csc(N)n3)C(=O)N2S(=O)O)S(=O)(=O)N1 (stereo in doubt) , half-life observed: 18.7
